- system.name: CYP3A4 (Homo sapiens)
- Sequence (P08684 whole entry): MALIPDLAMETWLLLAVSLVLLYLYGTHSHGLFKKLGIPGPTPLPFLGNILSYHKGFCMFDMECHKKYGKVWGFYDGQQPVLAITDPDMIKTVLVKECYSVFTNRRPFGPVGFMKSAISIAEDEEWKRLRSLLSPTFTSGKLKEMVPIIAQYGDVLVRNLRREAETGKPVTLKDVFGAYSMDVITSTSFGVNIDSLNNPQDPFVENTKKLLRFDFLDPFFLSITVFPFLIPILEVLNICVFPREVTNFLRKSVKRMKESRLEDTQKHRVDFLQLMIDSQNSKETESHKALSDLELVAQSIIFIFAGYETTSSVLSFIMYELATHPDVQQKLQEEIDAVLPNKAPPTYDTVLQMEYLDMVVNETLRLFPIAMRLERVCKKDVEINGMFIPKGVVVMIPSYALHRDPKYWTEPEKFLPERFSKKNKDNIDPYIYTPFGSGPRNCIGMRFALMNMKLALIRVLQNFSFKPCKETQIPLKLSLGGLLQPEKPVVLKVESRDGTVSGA
- experimental.protocol: Inhibition of CYP3A4 at 3 uM
- Type: ADME
endpoint.name: inhibition at 3 µM

Challenge: Which inhibition at 3 µM reading was recorded for the compound N#Cc1c(N2CCOCC2)sc(-c2nnc[nH]2)c1-c1ccc(Cl)cc1Cl ?
Response given: < 30%

* * *

- system.name: CYP2D6 (Homo sapiens)
- Sequence (P10635 whole entry): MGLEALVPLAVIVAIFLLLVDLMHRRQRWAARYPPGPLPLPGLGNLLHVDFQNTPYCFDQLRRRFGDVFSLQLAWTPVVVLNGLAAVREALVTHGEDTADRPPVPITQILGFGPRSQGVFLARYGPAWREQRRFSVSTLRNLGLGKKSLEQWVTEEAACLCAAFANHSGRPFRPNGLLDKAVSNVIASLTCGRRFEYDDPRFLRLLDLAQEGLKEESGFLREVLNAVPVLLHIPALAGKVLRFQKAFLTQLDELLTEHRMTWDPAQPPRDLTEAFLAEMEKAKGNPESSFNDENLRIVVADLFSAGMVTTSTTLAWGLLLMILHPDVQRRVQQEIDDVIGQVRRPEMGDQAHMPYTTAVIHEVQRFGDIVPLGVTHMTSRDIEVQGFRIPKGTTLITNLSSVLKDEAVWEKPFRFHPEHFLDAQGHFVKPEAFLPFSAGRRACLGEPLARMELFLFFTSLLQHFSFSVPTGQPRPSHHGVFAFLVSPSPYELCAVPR
- experimental.protocol: Inhibition of CYP2D6 at 3 uM
- Assay type: ADME
endpoint.name: inhibition at 3 µM

Challenge: Which inhibition at 3 µM reading was recorded for the compound N#Cc1c(N2CCOCC2)sc(-c2nnc[nH]2)c1-c1ccc(Cl)cc1Cl ?
Response given: < 30%
